Target Or System: T1, human IL-15Rα (human, UniProt Q13261 31-205, limits assumed)
T1 construct: also called hIL-15Rα; IL-15 receptor alpha
T1 sequence (Q13261 31-205 limits assumed): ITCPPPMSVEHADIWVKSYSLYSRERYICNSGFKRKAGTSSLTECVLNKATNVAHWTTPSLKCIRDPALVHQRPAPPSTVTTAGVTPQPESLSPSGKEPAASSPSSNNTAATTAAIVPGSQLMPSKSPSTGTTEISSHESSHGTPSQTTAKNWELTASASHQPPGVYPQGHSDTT
Method Summary: SPR, steady state
Result Type: Kd (nM)
State just the number; it will be interpreted in nM.

Which Kd value belongs to hIL-15 V49R/N4W (ligand) NWVWVISDLKKIEDLIQSMHIDATLYTESDVHPSCKVTAMKCFLLELQRISLESGDASIHDTVENLIILANNSLSSNGNVTESGCKECEELEEKNIKEFLQSFVHIVQMFINTGGGGSGHHHHHHHHGGGLNDIFEAQKIEWHE ?
143

Next: hIL-15 V49R/L69H (ligand) NWVNVISDLKKIEDLIQSMHIDATLYTESDVHPSCKVTAMKCFLLELQRISLESGDASIHDTVENLIIHANNSLSSNGNVTESGCKECEELEEKNIKEFLQSFVHIVQMFINTGGGGSGHHHHHHHHGGGLNDIFEAQKIEWHE
54.5

Entry hIL-15 V49R/L69S (ligand) NWVNVISDLKKIEDLIQSMHIDATLYTESDVHPSCKVTAMKCFLLELQRISLESGDASIHDTVENLIISANNSLSSNGNVTESGCKECEELEEKNIKEFLQSFVHIVQMFINTGGGGSGHHHHHHHHGGGLNDIFEAQKIEWHE please
78.2

Please answer likewise for hIL-15 V49R/Q108A (ligand) NWVNVISDLKKIEDLIQSMHIDATLYTESDVHPSCKVTAMKCFLLELQRISLESGDASIHDTVENLIILANNSLSSNGNVTESGCKECEELEEKNIKEFLQSFVHIVAMFINTGGGGSGHHHHHHHHGGGLNDIFEAQKIEWHE
161

Same again, this time with hIL-15 V49R/L69Y (ligand) NWVNVISDLKKIEDLIQSMHIDATLYTESDVHPSCKVTAMKCFLLELQRISLESGDASIHDTVENLIIYANNSLSSNGNVTESGCKECEELEEKNIKEFLQSFVHIVQMFINTGGGGSGHHHHHHHHGGGLNDIFEAQKIEWHE
137

And then hIL-15 V49R/N65D (ligand) NWVNVISDLKKIEDLIQSMHIDATLYTESDVHPSCKVTAMKCFLLELQRISLESGDASIHDTVEDLIILANNSLSSNGNVTESGCKECEELEEKNIKEFLQSFVHIVQMFINTGGGGSGHHHHHHHHGGGLNDIFEAQKIEWHE , what is it?
121

Can you handle hIL-15 V49R/L69F (ligand) NWVNVISDLKKIEDLIQSMHIDATLYTESDVHPSCKVTAMKCFLLELQRISLESGDASIHDTVENLIIFANNSLSSNGNVTESGCKECEELEEKNIKEFLQSFVHIVQMFINTGGGGSGHHHHHHHHGGGLNDIFEAQKIEWHE next?
106

Then this binder: hIL-15 V49R/K11T (ligand) NWVNVISDLKTIEDLIQSMHIDATLYTESDVHPSCKVTAMKCFLLELQRISLESGDASIHDTVENLIILANNSLSSNGNVTESGCKECEELEEKNIKEFLQSFVHIVQMFINTGGGGSGHHHHHHHHGGGLNDIFEAQKIEWHE
169

One more binder: hIL-15 V49R/I68F (ligand) NWVNVISDLKKIEDLIQSMHIDATLYTESDVHPSCKVTAMKCFLLELQRISLESGDASIHDTVENLIFLANNSLSSNGNVTESGCKECEELEEKNIKEFLQSFVHIVQMFINTGGGGSGHHHHHHHHGGGLNDIFEAQKIEWHE
78.5
